- Experimental system: human Adenosine A1 receptor (Homo sapiens)
- Sequence (P30542 1-326): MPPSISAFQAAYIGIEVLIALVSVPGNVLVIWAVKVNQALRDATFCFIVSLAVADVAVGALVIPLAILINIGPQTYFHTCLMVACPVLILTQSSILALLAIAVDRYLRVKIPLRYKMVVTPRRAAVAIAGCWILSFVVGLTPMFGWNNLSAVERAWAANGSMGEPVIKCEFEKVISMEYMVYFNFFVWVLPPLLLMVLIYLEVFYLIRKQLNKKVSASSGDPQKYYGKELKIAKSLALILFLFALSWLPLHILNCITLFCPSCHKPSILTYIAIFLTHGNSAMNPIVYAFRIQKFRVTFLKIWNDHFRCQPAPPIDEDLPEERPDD
- Assay remarks: GTPγS scintillation proximity assay, agonist testing
- Particulars: agonist activity; membrane extracts of CHO-K1 cells expressing recombinant human A1; read-out: A1AR EC50
pEC50: −log10 of the molar value.
Each record's class is read off its pEC50 using these ranges: lower (below 7), middle (7 to below 8), upper (8 or more)

Reference set, count: 10
Category of `N#Cc1c(N)nc(SCCC(F)(F)F)c(C#N)c1-c1ccc(O[C@H]2C[C@H](O)C2)cc1` , please.
lower

Category of N#Cc1c(N)nc(SCC2COC2)c(C#N)c1-c1ccc(OC2CCCOC2)cc1 (centres unmarked) , please.
lower

Category of `COCCOc1ccc(-c2c(C#N)c(N)nc(SCc3ccncn3)c2C#N)cc1` , please.
upper

Category of CC(Sc1nc(N)c(C#N)c(-c2ccc(OC3COC3)cc2)c1C#N)C1COC1 (centres unmarked) , please.
lower

Category of N#Cc1c(N)nc(SCC2CCOC2)c(C#N)c1-c1ccc(OC2CCOC2)cc1 (centres unmarked) , please.
lower

Category of `N#Cc1c(SCc2cccnc2)nc(N2CCCC2)c(C#N)c1-c1ccc(OCCOC(F)F)cc1` , please.
lower

Category of `COCCOc1ccc(-c2c(C#N)c(N)nc(SCCOC)c2C#N)cc1` , please.
middle

Category of `N#Cc1cnc(SCC2COC2)c(C#N)c1-c1ccc(OCCO)cc1` , please.
lower

Category of `N#Cc1c(N)nc(SCc2cccnc2)c(C#N)c1-c1ccc(OC2COC2)cc1` , please.
upper

Category of CNc1nc(SCC2COC2)c(C#N)c(-c2ccc(OC3COC3)cc2)c1C#N [Compound 230] , please.
upper

***
Category of `COCCOc1ccc(-c2c(C#N)c(N)nc(SCCO)c2C#N)cc1` , please.
middle

----------
- Experimental system: human A2B (Homo sapiens)
- Sequence (P29275 whole entry): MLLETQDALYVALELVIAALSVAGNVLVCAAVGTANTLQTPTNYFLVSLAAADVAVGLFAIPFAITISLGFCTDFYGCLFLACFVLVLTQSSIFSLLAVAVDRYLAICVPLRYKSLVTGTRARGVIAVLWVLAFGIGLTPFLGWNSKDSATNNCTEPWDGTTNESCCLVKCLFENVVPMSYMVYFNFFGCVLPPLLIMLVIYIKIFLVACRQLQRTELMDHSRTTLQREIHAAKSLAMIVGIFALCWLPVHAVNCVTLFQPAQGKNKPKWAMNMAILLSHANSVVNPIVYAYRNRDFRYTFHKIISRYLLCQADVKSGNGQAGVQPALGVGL
- Assay remarks: cAMP HTRF assay for Gs coupled receptor, agonist test
- Particulars: agonist activity; HEK293 cells expressing recombinant human A2B; read-out: A2BAR EC50
- Experimental: SPA ^35S-GTPγS experiments were conducted with Epics Therapeutics membrane preparations. cAMP HTRF assays were conducted with recombinant cell lines. Dose response curves are performed in parallel with the reference compounds. For agonist test (96 well): 12 μL of cells are mixed with 12 μL of the test compound at increasing concentrations and then incubated 30 min at room temperature. […]
pEC50: −log10 of the molar value.
Class t: pEC50 at least 7. Class f: pEC50 below 7.

Hi, just wondering whether `N#Cc1c(N)nc(SCC2OCCO2)c(C#N)c1-c1ccc(OC2COC2)cc1` shows pEC50 of 7 or higher.
f

***
Hi, just wondering whether `COCCOc1ccc(-c2c(C#N)c(N)nc(OCc3cccnc3)c2C#N)cc1` shows pEC50 of 7 or higher.
f

Hi, just wondering whether `CNC(=O)CSc1nc(N)c(C#N)c(-c2ccc(OCCOC)cc2)c1C#N` shows pEC50 of 7 or higher.
t
